- System: Acinetobacter baumannii ATCC17978
- Assay Protocol: Antimicrobial susceptibility testing: 90% growth inhibitory concentration (IC90) determination, Iso-Sensitest broth, OD 600 nm
- Format: cell-based
- Run Parameters: Acinetobacter baumannii, ATCC17978, 16 h, read-out: ATCC 17978 IC90
Counter-ions that a name gives are not always drawn.
// boundary case: IC90 equal to 200 nM maps to No; strictly smaller maps to Yes

Before answering, review these 5 worked examples.
CCc1cc(Nc2nccn3c(-c4ccc(OC)c(F)c4F)cnc23)ccc1C(=O)NCCOCCOCCN [Example 65, dihydrochloride] :: Yes
CCc1cc(Nc2nccn3c(-c4c(F)cc(OC)cc4F)cnc23)ccc1C(=O)NCCOCCN [Example 54, hydrochloride] :: No
COc1ccc(-c2cnc3c(Nc4ccc(C(=O)NCCOCCN)c(CC(F)F)c4)nccn23)c(F)c1F [Example 75, formic acid] :: Yes
CC#CCOc1ccc(-c2cnc3c(Nc4ccc(C(=O)NCCOCCN)c(C)c4)nccn23)cc1 [Example 67] :: No
COc1ccc(-c2cnc3c(Nc4ccc(C(=O)N(C)CCOCCN)c(C)c4)nccn23)cc1 [Example 24, hydrochloride] :: No

[ask] Regarding Cc1cc(Nc2nccn3c(-c4ccc(F)c(F)c4F)cnc23)ccc1C(=O)NCCOCCN [Example 37, hydrochloride] , kindly confirm whether its IC90 is beneath 200 nM.
[reply] No

[ask] Is it true that IC90 reported for COc1ccc(-c2cnc3c(Nc4cc(C)c(C(=O)NCCOCCN)c(F)c4)nccn23)c(F)c1F [Example 58, formate] is less than 200 nM?
[reply] Yes

[ask] Field: below-cutoff. Rule: recorded IC90 strictly less than 200 nM. Subject: COc1ccc(-c2cnc3c(Nc4ccc(C(=O)NCCOCCN)c(C)c4)nccn23)cc1F [Example 36, hydrochloride]
[reply] Yes

[ask] Given the entry Cc1cc(Nc2nccn3c(-c4ccc(OCC#N)c(F)c4)cnc23)ccc1C(=O)NCCOCCN [Example 68, formic acid] , would its reported IC90 be below 200 nM?
[reply] No
